measured-on: pooled human IgG
Below: a set of entries, each annotated with reported Enzyme Activity Endpoint Assay: scIgG.
Write down the numeric answer in ng/µL and omit the unit.

[
  {
    "protein": "PRT-1 (protein) MANQEIRYSEVTPYHVTSVWTKGVTPPANFTQGEDVFHAPYVANQGWYDITKTFNGKDDLLCGAATAGNMLHWWFDQNKDQIKRYLEEHPEKQKINFNGEQMFDVKEAIDTKNHQLDSKLFEYFKEKAFPYLSTKHLGVFPDHVIDMFINGYRLSLTNHGPTPVKEGSKDPRGGIFDAVFTRGDQSKLLTSRHDFKEKNLKEISDLIKKELTEGKALGLSHTYANVRINHVINLWGADFDSNGNLKAIYVTDSDSNASIGMKKYFVGVNSAGKVAISAKEIKEDNIGAQVLGLFTLSTGQDSWNQTN",
    "unit-of-measure": "ng/µL",
    "reported": 21
  }
]

Query :: I have this protein here, PRT-562 (protein) MANQEIRYSKATPSHITSVWTKGVTPPEQFIQNEDVLHAPYIANQGWYDITKTFNGKDDLLCGAATAGNMLHWWFDQNKEQIENYLKKHPEKQKINFNGEQMFDVKEAIDTKDSQTNSALFSYFKDKAFPYLSTKHLGVFPDHVIDMFINGYRLSLTNHGPTPVKEQTKDPRGGIFDAVFTRGDQSKLLTSRHDFKEKTLNEISQLIKQELTEGKALGLSHTYANVRINHVINLWGADFNAEGNLEAIYVTDSDSNASIGMKKYYVGVNSAGKVAISAKEIEGDNIGAQVLGLFTLSTGQDIWQQTNLEHHHHHH , and I need its recorded Enzyme Activity Endpoint Assay: scIgG.
Result :: 238
